Target: Induced myeloid leukemia cell differentiation protein Mcl-1 (Homo sapiens, UniProt Q07820)
Sequence (Q07820 whole entry): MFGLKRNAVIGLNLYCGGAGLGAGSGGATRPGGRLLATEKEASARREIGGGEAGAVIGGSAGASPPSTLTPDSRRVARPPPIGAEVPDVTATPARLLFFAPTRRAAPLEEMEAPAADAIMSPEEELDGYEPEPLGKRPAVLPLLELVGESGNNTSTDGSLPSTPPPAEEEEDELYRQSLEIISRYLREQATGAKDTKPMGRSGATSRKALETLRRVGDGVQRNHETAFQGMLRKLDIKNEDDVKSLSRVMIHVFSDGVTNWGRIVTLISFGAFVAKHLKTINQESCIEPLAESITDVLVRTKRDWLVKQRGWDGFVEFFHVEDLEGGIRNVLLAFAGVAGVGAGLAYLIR
Type: functional
The source made the active and inactive calls.

MOLECULE	IC50
CN(C)c1ncc(C2=C(Cl)C(=O)C(N3CCCC3)=C(Cl)C2=O)s1	26.4 µM (active)
CCOc1ccc(-c2ccc(/C=C3/C(=N)N4C=CSC4=NC3=O)o2)c([N+](=O)[O-])c1	1.48 µM (active)
CCc1ccc2nc3sc(C(=O)Nc4nnc(CC)s4)c(N)c3cc2c1	4.39 µM (not active)
CCCCOC(=O)Nc1ccc(N(C)C)cc1	0.473 µM (not active)
O=[N+]([O-])c1ccc(N/N=C/c2ccc(O)c(O)c2O)c(S(=O)(=O)N2CCOCC2)c1	2.98 µM (active)
COc1ccc(C(=O)N2c3ccccc3CC2C)cc1OC (configuration not stated)	0.799 µM (not active)
COc1ccc(Cl)c(N2CCN(CCCNC(=O)Nc3ccc(C)cc3)CC2)c1	6.56 µM (active)
